Test: Cytotoxicity by MTS staining in uninfected MAGI-CCR5 cells
Format: cell-based
Conditions: human, read-out: TC50
Kindly supply the reported CC50 at 48 h values for the records listed here.

Solved cases below.
compound: CC1=C(c2nc(-c3ccc(Br)cc3)cs2)C(c2cccc(O)c2)NC(=O)N1 (stereo not drawn)
CC50 at 48 h: 50 to 100 µM

compound: COc1ccc(C2NC(=O)NC(C)=C2c2nc(-c3ccc(C#N)cc3)cs2)cc1O (stereo not drawn)
CC50 at 48 h: ≥ 100 µM

compound: CC1=C(c2nc(-c3ccc(C#N)cc3)cs2)C(c2cnc3ccccc3n2)NC(=O)N1 (stereo not drawn)
CC50 at 48 h: ≥ 100 µM

Take each entry in turn and give its CC50 at 48 h.
1. CC1=C(c2nc(-c3ccc(C#N)cc3)cs2)C(c2cc3ccccc3[nH]2)NC(=O)N1 (stereo not drawn)
2. CC1=C(c2nc(-c3ccc4ccccc4c3)cs2)C(c2cccc(O)c2)NC(=O)N1 (stereo not drawn)
3. CC1=C(c2nc(-c3ccc(C#N)cc3)cs2)C(c2cccc(O)c2)NC(=O)N1 (stereo not drawn)
4. CC1=C(c2nc(-c3ccc(C#N)cc3)cs2)C(c2ccc(O)cc2)NC(=O)N1 (stereo not drawn)

["< 50 µM", "50 to 100 µM", "≥ 100 µM", "≥ 100 µM"]

Take each entry in turn and give its CC50 at 48 h.
1. CC1=C(c2nc(-c3ccc(C#N)cc3)cs2)C(Cc2ccc(C)cc2)NC(=O)N1 (stereo not drawn)
2. COc1cccc(C2NC(=O)NC(C)=C2c2nc(-c3ccc(C#N)cc3)cs2)c1 (stereo not drawn)
3. CC1=C(c2nc(-c3ccc(F)cc3)cs2)C(Cc2ccccc2)NC(=O)N1 (stereo not drawn)
4. CC1=C(c2nc(-c3ccc(C#N)cc3)cs2)C(c2ccc(F)nc2)NC(=O)N1 (stereo not drawn)
5. COc1ncc(C2NC(=O)NC(C)=C2c2nc(-c3ccc(C#N)cc3)cs2)cn1 (stereo not drawn)
6. CC1=C(c2nc(-c3ccccc3)cs2)C(c2cccc(O)c2)NC(=O)N1 (stereo not drawn)
7. CC1=C(c2nc(-c3ccc(C)cc3)cs2)C(c2cccc(O)c2)NC(=O)N1 (stereo not drawn)
8. CC1=C(c2nc(-c3cccc(C#N)c3)cs2)C(c2cccc(O)c2)NC(=O)N1 (stereo not drawn)

50 to 100 µM
≥ 100 µM
≥ 100 µM
≥ 100 µM
≥ 100 µM
≥ 100 µM
50 to 100 µM
50 to 100 µM

Take each entry in turn and give its CC50 at 48 h.
1. COc1ccc(-c2csc(C3=C(C)NC(=O)NC3c3cccc(O)c3)n2)cc1 (stereo not drawn)
2. CC1=C(c2nc(-c3ccc(C#N)cc3)cs2)C(c2cccnc2F)NC(=O)N1 (stereo not drawn)
3. COc1ccc(-c2csc(C3=C(C)NC(=O)NC3c3cc(Br)cs3)n2)cc1 (stereo not drawn)
4. CC1=C(c2nc(-c3ccc(C#N)cc3)cs2)C(c2ccc(OC(F)(F)F)cc2)NC(=O)N1 (stereo not drawn)

["≥ 100 µM", "≥ 100 µM", "≥ 100 µM", "≥ 100 µM"]

Take each entry in turn and give its CC50 at 48 h.
1. CC1=C(c2nc(-c3ccc(C#N)cc3C)cs2)C(c2ccc(Br)nc2)NC(=O)N1 (stereo not drawn)
2. CC1=C(c2nc(-c3ccc(C#N)cc3)cs2)C(c2ccc(N(C)C)nc2)NC(=O)N1 (stereo not drawn)

1. < 50 µM
2. ≥ 100 µM

Take each entry in turn and give its CC50 at 48 h.
1. CC1=C(c2nc(-c3ccc(C#N)cc3)cs2)C(c2ccc(OCc3ccccc3)c(Cl)c2)NC(=O)N1 (stereo not drawn)
2. CC1=C(c2nc(-c3ccc(C#N)cc3)cs2)C(c2cc(Br)cs2)NC(=O)N1 (stereo not drawn)
3. Cc1nnc(C(=O)NC(C)(C)c2nc(C(=O)NCc3ccc(F)cc3)c(O)c(=O)n2C)o1 [Raltegravir, reference compound]
4. CC1=C(c2nc(-c3ccc(C#N)cc3)cs2)C(c2ccc3cccc(O)c3n2)NC(=O)N1 (stereo not drawn)
5. CC1=C(c2nc(-c3cccc(C#N)c3)cs2)C(c2cccc(O)c2)NC(=O)N1C (stereo not drawn)

["≥ 100 µM", "≥ 100 µM", "> 100 µM", "50 to 100 µM", "≥ 100 µM"]

Take each entry in turn and give its CC50 at 48 h.
1. COc1cccc(C2NC(=O)NC(C)=C2c2nc(-c3ccc(C#N)cc3)cs2)n1 (stereo not drawn)
2. CC1=C(c2nc(-c3ccc(C#N)cc3)cs2)C(c2ccc(Cl)c(OC(F)(F)F)c2)NC(=O)N1 (stereo not drawn)

1: ≥ 100 µM; 2: ≥ 100 µM

Take each entry in turn and give its CC50 at 48 h.
1. CC1=C(c2nc(-c3ccc(C#N)cc3)cs2)C(c2ccc([N+](=O)[O-])cc2)NC(=O)N1 (stereo not drawn)
2. CC1=C(c2nc(-c3ccc(C#N)cc3C)cs2)C(c2cc3ccccc3n2C)NC(=O)N1 (stereo not drawn)
3. CC1=C(c2nc(-c3ccc(C#N)cc3)cs2)C(c2ccc(Cl)nc2)NC(=O)N1 (stereo not drawn)
4. c1cc(CN2CCCNCCNCCCNCC2)ccc1CN1CCCNCCNCCCNCC1 [AMD 3100, reference compound]
5. CC1=C(c2nc(-c3ccc(C#N)cc3)cs2)C(c2cc3ccccc3n2C)NC(=O)N1 (stereo not drawn)

1. ≥ 100 µM
2. ≥ 100 µM
3. ≥ 100 µM
4. > 10 µM
5. ≥ 100 µM
